In this section we review reported activity at 200 µM values for a set of compounds.
Target: recombinant human SULT2B1b protein (Homo sapiens, UniProt O00204)
Sequence (O00204 whole entry): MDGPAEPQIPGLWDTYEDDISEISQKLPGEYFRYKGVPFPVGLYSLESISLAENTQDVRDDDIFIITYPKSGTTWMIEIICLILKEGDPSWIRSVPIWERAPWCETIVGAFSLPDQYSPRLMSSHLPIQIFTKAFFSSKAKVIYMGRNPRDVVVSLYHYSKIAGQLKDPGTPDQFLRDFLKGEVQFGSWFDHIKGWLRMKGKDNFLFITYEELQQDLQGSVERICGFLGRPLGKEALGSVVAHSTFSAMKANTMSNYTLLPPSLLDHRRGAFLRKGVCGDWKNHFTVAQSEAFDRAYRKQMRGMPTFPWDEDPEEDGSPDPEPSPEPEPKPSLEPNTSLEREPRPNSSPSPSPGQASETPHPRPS
Test: SULT assay (in vitro SULT2B1b enzymatic activity measurement)
Assay type: biochemical
Conditions: test compound 200 μM; relative to DMSO control (100%); read-out: in vitro SULT2B1b assay % activity at 200 μM

>  <COMPOUND>
CC(=O)OC1CCC2(C)C(=CCC3C2CCC2(C)C(C(C)CCC(=O)O)CCC32)C1 (stereo not drawn) [Compound 17, 3-acetoxy-5-cholenoic acid]

>  <activity at 200 µM (%)>
66.4

$$$$
>  <COMPOUND>
CO[C@H]1CC[C@@]2(C)C(=CC[C@H]3[C@@H]4CC[C@H]([C@H](C)CCC(=O)O)[C@@]4(C)CC[C@@H]32)C1 [Compound 6]

>  <activity at 200 µM (%)>
22.9

$$$$
>  <COMPOUND>
C[C@H](CCC(=O)N(Cc1ccccc1)Cc1ccccc1)[C@H]1CC[C@H]2[C@@H]3CC=C4C[C@@H](OC(=O)C(F)(F)F)CC[C@]4(C)[C@H]3CC[C@]12C [Compound 7]

>  <activity at 200 µM (%)>
6.4

$$$$
>  <COMPOUND>
C[C@H](CCC(=O)O)[C@H]1CC[C@H]2[C@@H]3CC=C4C[C@@H](O)CC[C@]4(C)[C@H]3CC[C@]12C [Compound 1]

>  <activity at 200 µM (%)>
20.6

$$$$
>  <COMPOUND>
CCCCNC(=O)CC[C@@H](C)[C@H]1CC[C@H]2[C@@H]3CC=C4C[C@@H](OC(=O)C(F)(F)F)CC[C@]4(C)[C@H]3CC[C@]12C [Compound 8]

>  <activity at 200 µM (%)>
10.7

$$$$
>  <COMPOUND>
C[C@H](CCC(=O)N1CCOCC1)[C@H]1CC[C@H]2[C@@H]3CC=C4C[C@H](N=[N+]=[N-])CC[C@]4(C)[C@H]3CC[C@]12C [Compound 12]

>  <activity at 200 µM (%)>
8.3

$$$$

###

In this section we review reported activity at 20 µM values for a set of compounds.
Test system: SULT2B1b-mediated CS production in E0771-SULT cells
Assay: CS production inhibitory effect in E0771-SULT cells (LC/MS/MS quantification of CS)
Assay type: cell-based, mouse
Conditions: Mus musculus, 24 h, read-out: CS production % activity at 20 μM, E0771-SULT cells, 24 hours, test compound 20 μM; relative to control without compound (100%)
TEST_READOUT: activity at 20 µM

>  <COMPOUND>
C[C@H](CCC(=O)N1CCOCC1)[C@H]1CC[C@H]2[C@@H]3CC=C4C[C@H](n5cc(CN(C)C)nn5)CC[C@]4(C)[C@H]3CC[C@]12C [Compound 13]

>  <OBSERVED>
65.8%

$$$$
>  <COMPOUND>
C#CCOCCOCCOCCOCCNC(=O)CC[C@@H](C)[C@H]1CC[C@H]2[C@@H]3CC=C4C[C@@H](OS(=O)(=O)O)CC[C@]4(C)[C@H]3CC[C@]12C [Compound 25]

>  <OBSERVED>
60.1%

$$$$
>  <COMPOUND>
C[C@H](CCC(=O)N1CCOCC1)[C@H]1CC[C@H]2[C@@H]3CC=C4C[C@@H](O)CC[C@]4(C)[C@H]3CC[C@]12C [Compound 11]

>  <OBSERVED>
87.4%

$$$$

###

System: SULT2B1b-mediated CS production in E0771-SULT cells
Experiment: CS production inhibitory effect in E0771-SULT cells (LC/MS/MS quantification of CS)
Format: cell-based, mouse
Conditions: Mus musculus, 24 h, read-out: CS production % activity at 10 μM, E0771-SULT cells, 24 hours, test compound 10 μM (Table 1); relative to control (100%)
I would appreciate it if you labelled entries Fulfilled when activity at 10 µM is 50% or higher, otherwise Not fulfilled.

>  <MOLECULE>
CC(=O)OC1CCC2(C)C(=CCC3C2CCC2(C)C(C(C)CCC(=O)O)CCC32)C1 (centres unmarked) [Compound 17, 3-acetoxy-5-cholenoic acid]

>  <CLASSIFICATION>
Not fulfilled

$$$$
>  <MOLECULE>
CO[C@H]1CC[C@@]2(C)C(=CC[C@H]3[C@@H]4CC[C@H]([C@H](C)CCC(=O)O)[C@@]4(C)CC[C@@H]32)C1 [Compound 6]

>  <CLASSIFICATION>
Fulfilled

$$$$
>  <MOLECULE>
C[C@H](CCC(=O)O)[C@H]1CC[C@H]2[C@@H]3CC=C4C[C@@H](O)CC[C@]4(C)[C@H]3CC[C@]12C [Compound 1]

>  <CLASSIFICATION>
Not fulfilled

$$$$
>  <MOLECULE>
CCCCNC(=O)CC[C@@H](C)[C@H]1CC[C@H]2[C@@H]3CC=C4C[C@@H](OC(=O)C(F)(F)F)CC[C@]4(C)[C@H]3CC[C@]12C [Compound 8]

>  <CLASSIFICATION>
Fulfilled

$$$$
